Test system: EKVX NSCLC
Assay: NCI tumour cell line growth inhibition, 48 h
recorded-endpoint: TGI (µM)

compound: C=C1C(=O)O[C@@H]2C[C@@H]1CC[C@]1(C)O[C@H]1CC[C@@]1(C)O[C@@H]1CC[C@@]2(C)O
readout-unit: µM
value-comparator: >
observed: 100

compound: Cc1c(N2C(=O)/C(=C/C=C/c3ccccc3)N=C2c2ccccc2)c(=O)n(-c2ccccc2)n1C
readout-unit: µM
value-comparator: =
observed: 36.5

compound: O=C1/C(=C/c2cccc([N+](=O)[O-])c2)COc2ccc(O)c(O)c21
readout-unit: µM
value-comparator: =
observed: 4.1

compound: C/C(=N\N=C(N)N)C(CN(CC(C)C)CC(C)C)C(=O)Nc1ccc(C)cc1C (centres undefined)
readout-unit: µM
value-comparator: >
observed: 100

compound: Clc1ccc(-c2nn3c(CCCCCCCCc4nnc5sc(-c6ccc(Cl)cc6)nn45)nnc3s2)cc1
readout-unit: µM
value-comparator: >
observed: 83

compound: Cc1cc2c(c3c1c1ccccc1n3C)C(=O)C=CC2=O
readout-unit: µM
value-comparator: >
observed: 100

compound: O=P(c1ccccc1)(c1ccccc1)C1CC=C(c2ccccc2)C2(CCCC2)C1 (centres undefined)
readout-unit: µM
value-comparator: >
observed: 100

compound: COc1c(CC=C(C)C)c(O)c(C(CC(C)C)c2c(O)c(C(C)=O)c(O)c3c2OC(C(C)(C)O)C3)c(O)c1C(C)=O (centres undefined)
readout-unit: µM
value-comparator: =
observed: 11.6

compound: CCCCCC(CN1CCOCC1)C(=O)/C=C/c1ccccc1 (centres undefined)
readout-unit: µM
value-comparator: =
observed: 22.5

###

Tested on: HT29 colon
Experiment: NCI tumour cell line growth inhibition, 48 h

compound: Oc1ccc2ccccc2c1C=NCCCN=Cc1c(O)ccc2ccccc12
GI50: 19700 nM
--
compound: CCNC(=O)C[C@@H]1N=C(c2ccc(Cl)cc2)c2cc(OC)ccc2-n2c(C)nnc21
GI50: 1020 nM
--
compound: Nc1c(C(=O)Nc2ccccc2)sc2nc3c(cc12)CCCCCC3
GI50: 303 nM
--
compound: COc1ccc(-c2ccc(C3CC(c4ccc(O)cc4)=NN3)o2)c([N+](=O)[O-])c1 (configuration not stated)
GI50: 40100 nM
--
compound: COc1ccc(C(=O)Cn2c(C(=O)c3ccc(OC)cc3)nc3ccccc32)cc1
GI50: 576 nM
--
compound: O=C(Nc1ccc(S(=O)(=O)Nc2nccs2)cc1)c1cccnc1Nc1cccc(Cl)c1
GI50: 16700 nM
--
compound: O=C1c2ccccc2-c2c1c1ccccc1c(=O)n2CCCNCCCn1c2c(c3ccccc3c1=O)C(=O)c1ccccc1-2
GI50: 997 nM

###

Below is a list of entries, each paired with its recorded TGI value.
System: HCT-15 colon
Experiment: NCI tumour cell line growth inhibition, 48 h

compound: CNC(=S)/C(=N\Nc1nc[nH]c1C(N)=O)C(N)=S
TGI: > 100 µM
--
compound: CC1=C2C(O)C(C(C)C(=O)NCC(C)C)CCC2(C)C=CC1=O (centres undefined)
TGI: > 100 µM
--
compound: CCOC(=N)CC(=O)Nc1ccc(Cl)cc1
TGI: > 100 µM
--
compound: COc1cc2oc(=O)cc(C)c2cc1[N+](=O)[O-]
TGI: 44.4 µM
--
compound: C=C1C(=O)O[C@H]2[C@H]1CC/C(COC(=O)C(=O)c1c[nH]c3ccccc13)=C\CC[C@@]1(C)O[C@@H]21
TGI: 4.02 µM
--
compound: CCOc1c2ccsc2c(OCC)c2ccsc12
TGI: > 30.7 µM
--
compound: Oc1cccc2c1NC1=C(CCC/C1=C\c1ccccc1)C2
TGI: > 100 µM
--
compound: CCCCCCCCCCCCCS(=O)(=O)O
TGI: > 100 µM
--
compound: OC1(c2ccccc2)CC2CCC(C1)N2CCc1ccccc1 (centres undefined)
TGI: > 100 µM
